This collection of values is drawn from patent US20250353819A1.

- Assay method text: In vitro metabolic stability, human liver microsomes
- Type: in vitro ADME
- Experimental context: human, microsomes
Measured metric: microsomal CLint

Compound | Result
[2H]C([2H])([2H])C1(C([2H])([2H])[2H])NC(=O)N(c2ccc(F)c(C(F)(F)F)c2)C1=O | < 7 µL/min/mg
CC1(C(F)F)NC(=O)N(c2ccc(F)c(C(F)(F)F)c2)C1=O (centres unmarked) | < 7 µL/min/mg

====

- Assay method text: in vivo
- Set-up: species or system dog
- Experimental context: beagle, dog, in vivo; male dogs (n = 2), IV 1 mg/kg; read-out: Plasma CL

Compound | U | clearance
[2H]C([2H])([2H])C1(C([2H])([2H])[2H])NC(=O)N(c2ccc(F)c(C(C)(F)F)c2)C1=O [Compound IE] | mL/h/kg | 1.44

====

- Assay method text: In vitro metabolic stability, mouse liver microsomes
- Format: in vitro ADME
- Experimental context: mouse, microsomes

Molecule | microsomal CLint
CC1(C(F)F)NC(=O)N(c2ccc(F)c(C(F)(F)F)c2)C1=O (centres unmarked) [ID] | < 7 µL/min/mg
[2H]C([2H])([2H])C1(C([2H])([2H])[2H])NC(=O)N(c2ccc(F)c(C(F)(F)F)c2)C1=O [IB] | < 7 µL/min/mg

====

- Assay method text: in vivo
- Set-up: species or system dog
- Experimental context: female, beagle, dog, in vivo, iv, 1 mg/kg, female dogs, iv 1 mg/kg; read-out: mean elimination phase half-life (t1/2) (converted)
Measured metric: half-life (h)

Smiles notation | Recorded number
[2H]C([2H])([2H])C1(C([2H])([2H])[2H])NC(=O)N(c2ccc(F)c(C(C)(F)F)c2)C1=O | 152

====

- Assay method text: Mouse exposure / pharmacokinetic studies
- Assay type: in vivo, mice
- Experimental context: male, Swiss outbred, mouse, in vivo; mice, oral, mean dose 55.6 mg/kg; read-out: Plasma AUC0-48 h

Compound | AUC(0-t)
[2H]C([2H])([2H])C1(C([2H])([2H])[2H])NC(=O)N(c2ccc(F)c(C(C)(F)F)c2)C1=O [Compound IE] | 1130 µg·h/mL

====

- Study system: CYP 1A2 (Homo sapiens (Human))
- Sequence (P05177 whole entry): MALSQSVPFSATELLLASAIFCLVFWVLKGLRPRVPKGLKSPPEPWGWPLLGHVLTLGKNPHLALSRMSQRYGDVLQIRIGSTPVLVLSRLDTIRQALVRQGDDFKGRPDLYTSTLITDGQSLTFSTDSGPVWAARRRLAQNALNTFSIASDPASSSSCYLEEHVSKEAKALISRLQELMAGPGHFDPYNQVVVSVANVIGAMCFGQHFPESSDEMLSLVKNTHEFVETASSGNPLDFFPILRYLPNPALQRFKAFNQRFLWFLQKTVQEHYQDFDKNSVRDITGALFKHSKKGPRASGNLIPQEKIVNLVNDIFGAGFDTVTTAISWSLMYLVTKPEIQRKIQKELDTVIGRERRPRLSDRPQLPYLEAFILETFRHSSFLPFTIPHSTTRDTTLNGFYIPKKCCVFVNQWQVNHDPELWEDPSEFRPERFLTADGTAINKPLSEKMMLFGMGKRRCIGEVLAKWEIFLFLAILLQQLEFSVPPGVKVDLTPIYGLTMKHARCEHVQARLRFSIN
- Assay method text: CYP inhibition in human liver microsomes, 1A2
- Assay type: in vitro ADME

Smiles notation | IC50
CC1(C)NC(=O)N(c2ccc(F)c(C(C)(F)F)c2)C1=O | > 20 µM

====

- Assay method text: in vivo
- Parameters: species or system dog
- Experimental context: beagle, dog, in vivo; male dogs (n = 2), PO 15 mg/kg; read-out: Plasma Cmax

Compound | Cmax
[2H]C([2H])([2H])C1(C([2H])([2H])[2H])NC(=O)N(c2ccc(F)c(C(C)(F)F)c2)C1=O [Compound IE] | 51.9 µg/mL

====

- Assay method text: Pharmacokinetics in male Sprague Dawley rats
- Format: in vivo, rat
- Experimental context: male, Sprague Dawley, rat, in vivo, po, 0.9 mg/kg, rats, PO 0.9 mg/kg, mean (n = 3); read-out: Plasma Cmax
Measured metric: Cmax (ng/mL)

Smiles notation | Recorded number
[2H]C([2H])([2H])C1(C([2H])([2H])[2H])NC(=O)N(c2ccc(F)c(C(C)(F)F)c2)C1=O | 440

====

- Assay method text: Pharmacokinetics in male Sprague Dawley rats
- Format: in vivo, rat
- Experimental context: male, Sprague Dawley, rat, plasma, iv, 1 mg/kg, rats, IV 1 mg/kg, mean (n = 3); read-out: Apparent t1/2 (converted)
- Protocol: IV and oral formulations were prepared using the same method. On the day of dosing the solid compound was dissolved in DMSO prior to addition of a saline solution (0.9% w/v). The samples were then mixed using vortexing producing colourless solutions. The IV formulation was filtered through a 0.22 μm syringe filter prior to dosing and the oral formulation was dosed without filtration. […] Plasma concentration versus time data were analysed using non-compartmental methods (PKSolver Version 2.0). […]

Smiles notation | U | half-life
CC1(C)NC(=O)N(c2ccc(F)c(C(C)(F)F)c2)C1=O | h | 15

====

# maps each entry to its AUC(0-t)
- Assay method text: Mouse exposure / pharmacokinetic studies
- Type: in vivo, mice
- Experimental context: male, Swiss outbred, mouse, in vivo; 100 mg/kg PO in mice; read-out: AUC0-last

Molecule | AUC(0-t) (µg·h/mL)
[2H]C([2H])([2H])C1(C([2H])([2H])[2H])NC(=O)N(c2ccc(F)c(C(C)(F)F)c2)C1=O | 1800
CC1(C)NC(=O)N(c2ccc(F)c(C(C)(F)F)c2)C1=O | 1560
CC1(C(F)(F)F)NC(=O)N(c2ccc(F)c(C(F)(F)F)c2)C1=O (stereo not drawn) | 966

====

- Assay method text: Mouse exposure / pharmacokinetic studies
- Assay type: in vivo, mice
- Experimental context: male, Swiss outbred, mouse, in vivo, po, 100 mg/kg

Compound | AUC(0-t) (µg·h/mL)
CC1(C(F)F)NC(=O)N(c2ccc(F)c(C(F)(F)F)c2)C1=O (centres unmarked) | 1650
[2H]C([2H])([2H])C1(C([2H])([2H])[2H])NC(=O)N(c2ccc(F)c(C(F)(F)F)c2)C1=O | 1820

====

- Assay method text: Mouse exposure / pharmacokinetic studies
- Format: in vivo, mice
- Experimental context: male, Swiss outbred, mouse, in vivo; IV 1 mg/kg, mice; read-out: volume of distribution

Smiles notation | Vd (L/kg)
[2H]C([2H])([2H])C1(C([2H])([2H])[2H])NC(=O)N(c2ccc(F)c(C(C)(F)F)c2)C1=O | 1.59

====

- Assay method text: Mouse exposure / pharmacokinetic studies
- Type: in vivo, mice
- Experimental context: male, Swiss outbred, mouse, in vivo; mice, oral, mean dose 99.7 mg/kg; read-out: Plasma AUC0-48 h

Smiles notation | AUC(0-t)
[2H]C([2H])([2H])C1(C([2H])([2H])[2H])NC(=O)N(c2ccc(F)c(C(C)(F)F)c2)C1=O | 1800 µg·h/mL

====

Listed next: entries and their corresponding AUC(0-t).
- Assay method text: Mouse exposure / pharmacokinetic studies
- Assay type: in vivo, mice
- Experimental context: male, Swiss outbred, mouse, in vivo; mice, IV, mean dose 1.0 mg/kg; read-out: Plasma AUC0-48 h

Smiles notation | AUC(0-t), ng·h/mL
[2H]C([2H])([2H])C1(C([2H])([2H])[2H])NC(=O)N(c2ccc(F)c(C(C)(F)F)c2)C1=O | 28200
CC1(C)NC(=O)N(c2ccc(F)c(C(C)(F)F)c2)C1=O | 8480

====

- Assay method text: Stability in dog cryopreserved hepatocytes
- Assay type: in vitro ADME
- Experimental context: dog cryopreserved hepatocytes; read-out: in vitro CLint

Smiles notation | hepatocyte CLint
[2H]C([2H])([2H])C1(C([2H])([2H])[2H])NC(=O)N(c2ccc(F)c(C(C)(F)F)c2)C1=O | < 2000 µL/min/1e6 cells

====

- Assay method text: Pharmacokinetics in male Sprague Dawley rats
- Type: in vivo, rat
- Experimental context: male, Sprague Dawley, rat, in vivo, po, 1 mg/kg, rats, PO 1 mg/kg, mean (n = 3); read-out: Plasma Cmax

Smiles notation | U | Cmax
CC1(C)NC(=O)N(c2ccc(F)c(C(C)(F)F)c2)C1=O | ng/mL | 572

====

- Assay method text: Mouse exposure / pharmacokinetic studies
- Type: in vivo, mice
- Experimental context: male, Swiss outbred, mouse, in vivo, iv, 1 mg/kg, IV 1 mg/kg, mice; read-out: blood clearance

Smiles notation | clearance / mL/min/kg
[2H]C([2H])([2H])C1(C([2H])([2H])[2H])NC(=O)N(c2ccc(F)c(C(C)(F)F)c2)C1=O | 0.59

====

- Assay method text: Plasma protein binding (rapid equilibrium dialysis), human plasma
- Format: in vitro ADME
- Experimental context: human, plasma, read-out: % bound (converted)

Compound | fraction unbound
CC1(C)NC(=O)N(c2ccc(F)c(C(C)(F)F)c2)C1=O [Compound IC] | 0.34
[2H]C([2H])([2H])C1(C([2H])([2H])[2H])NC(=O)N(c2ccc(F)c(C(C)(F)F)c2)C1=O [Compound IE] | 0.367

====

- Assay method text: Mouse exposure / pharmacokinetic studies
- Assay type: in vivo, mice
- Experimental context: male, Swiss outbred, mouse, in vivo; mice, oral, mean dose 55.6 mg/kg; read-out: Plasma Cmax

Molecule | U | Cmax
[2H]C([2H])([2H])C1(C([2H])([2H])[2H])NC(=O)N(c2ccc(F)c(C(C)(F)F)c2)C1=O [Compound IE] | ng/mL | 28200

====

- Assay method text: Pharmacokinetics in male Sprague Dawley rats
- Type: in vivo, rat
- Experimental context: male, Sprague Dawley, rat, in vivo, po, 1 mg/kg, rats, PO 1 mg/kg, mean (n = 3); read-out: Plasma AUCoral

Smiles notation | U | AUC
CC1(C)NC(=O)N(c2ccc(F)c(C(C)(F)F)c2)C1=O | ng·h/mL | 20400
